System: HOP-92 NSCLC
assay notes: NCI-60 one-dose screen, 48 h (100 = growth as untreated, 0 = no growth, -100 = all killed)
assay setup: 10 µM unless noted
About 83,000 compounds went through this panel and 20% of them were active in at least one assay; those are over-represented in the sample as a whole.
Record form. Attribute: growth. Fill in for each entry.
Give bare numbers, in %.

Provide reported growth for each item, in the same order as listed.
1. COc1ccc(/C=C2\CS(=O)(=O)C/C(=C\c3ccc(OC)cc3)C2=O)cc1
2. Cc1cn(-c2cc(C(=O)Nc3cccc(-n4ccc5c(NC(=O)c6ccccc6)nccc54)c3)cc(C(F)(F)F)c2)cn1

1. -41.3
2. -6.29
